TEST TARGET: T1, IGF-IR-Fc (human, UniProt P08069 31-932)
T1 construct: range 1-932; Made in house by transient transfection, captured on Protein A on CM5 chips for kinetic analysis; also called human IGF-IR-Fc fusion protein; recombinant, immobilized IGF-IR (BIAcore); not shown: hinge and constant regions of human IgG1
PROTOCOL DESCRIPTION: SPR (BIAcore); IGF-IR-Fc captured on Protein A, clone in solution
Protocol: One liter E. coli growths of selected optimized clones were prepared and the proteins were purified. […] The binding kinetics of fibronectin-based scaffold proteins binding proteins to the target was measured using BIAcore 2000 or 3000 biosensors (Pharmacia Biosensor). […] Typically, a concentration series (2 uM to 0 uM) of purified fibronectin-based scaffold protein was evaluated for binding to protein A captured human IGF-IR-Fc fusion protein.
MEASUREMENT KIND: koff (s⁻¹)

354A10 (designed binder, Optimized derivative of 218C04) VSDVPRDLEVVAATPTSLLISWSNRLVVKRYYRITYGETGGNSPVQEFTVPHQMKTATISGLKPGVDYTITVYAVTPGGYSGRNYGPISINYRTHHHHHH = 0.00018
353F10 (designed binder, Optimized derivative of 218C04) VSDVPRDLEVVAATPTSLLISWPTHYKVARYYRITYGETGGNSPVQEFTVPKHTYTATISGLKPGVDYTITVYAVTTTKGLRHYGPISINYRTHHHHHH = 0.00021
338A06 (designed binder, Optimized derivative of 218C04; also called clone 338A06; parent clone 338A06) VSDVPRDLEVVAATPTSLLISWSARLKVARYYRITYGETGGNSPVQEFTVPKNVYTATISGLKPGVDYTITVYAVTKMRDYRPISINYRTHHHHHH = 0.00043

Reference source for all entries: patent US20130310317A1
